Data origin: patent US11471436B2

Give measured IC50 for each item. Keep answers brief.
# target: human S1P1 (EDG-1) (Homo sapiens, UniProt P21453)
# Sequence (P21453 whole entry): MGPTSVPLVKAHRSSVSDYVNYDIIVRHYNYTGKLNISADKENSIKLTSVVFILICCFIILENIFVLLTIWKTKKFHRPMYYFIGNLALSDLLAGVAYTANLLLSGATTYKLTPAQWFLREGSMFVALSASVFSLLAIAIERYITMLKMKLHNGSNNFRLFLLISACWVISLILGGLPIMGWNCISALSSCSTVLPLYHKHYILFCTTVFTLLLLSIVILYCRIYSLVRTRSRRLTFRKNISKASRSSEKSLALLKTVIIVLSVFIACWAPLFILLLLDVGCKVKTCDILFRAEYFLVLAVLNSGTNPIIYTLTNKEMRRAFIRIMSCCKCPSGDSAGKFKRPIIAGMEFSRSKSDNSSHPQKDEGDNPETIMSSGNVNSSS
# protocol summary: Inhibition of binding of [33P]-S1P to S1P1, CHO membrane fractions
# condition description: [33P]-S1P binding, membrane fractions of CHO cells overexpressing human S1P1

Prompt: Test system human S1P1 (EDG-1) (Homo sapiens, UniProt P21453); read-out IC50; what value for CCCCc1ccc(Oc2ccc3c(c2)CCC(CN2CC(C(=O)O)C2)=C3C)cc1.Cl [Comparative Compound A, hydrochloride, reference compound] ?
Completion: 475 nM

Prompt: Same thing, different molecule: CC1Cc2cc(OC3CCCCC3)ccc2C=C1CN1CC(C(=O)O)C1 (centres unmarked) [Example 21]
Completion: > 10000 nM

Prompt: Same thing, different molecule: O=C(O)C1CN(CC2=Cc3ccc(OC4CCCCC4)cc3CC2)C1 [Example 9 (2)]
Completion: > 10000 nM

Prompt: Same thing, different molecule: CC1=C(CN2CC(C(=O)O)C2)CCc2cc(-c3ccccn3)ccc21 [Example 14 (3)]
Completion: > 10000 nM

Prompt: Same thing, different molecule: CC1=C(CN2CC(C(=O)O)C2)CCc2cc(-c3ccccc3)ccc21 [Example 14 (1)]
Completion: > 10000 nM
